System: HT-29
assay text: NCI tumour cell line growth inhibition, 48 h
Calls of active or inactive are those of the source. No stated cut-off is given here; in the data, active = GI50 up to about 1.1 µM and inactive = higher.
measured quantity: GI50

>>> result("O=C(CCc1nnc2s/c(=C\\c3ccccc3)c(=O)n12)Nc1cc(Cl)ccc1Cl")
"> 100 µM (inactive)"
>>> result("C=CCN1CCC(O)(c2cc(C(=O)OCC)[nH]c2-c2cc(C)no2)C1 (stereo not given)")
"> 100 µM (inactive)"
>>> result("COc1ccc(N2C(=O)C3c4[nH]c5ccccc5c4C4CC(C)CC(C)C4C3C2=O)cc1 (stereo not given)")
"> 100 µM (inactive)"
>>> result("Cc1nc2c(nc1C)-c1c(c3c(n1Cc1ccccc1)C(=O)CCC3)C(=O)C2=O")
"4.65 µM (inactive)"
>>> result("COc1cccc(/N=N/C(=N/NC(=O)c2ccc(C)cc2)c2ccc(N(CCC#N)CCC#N)cc2OC)c1")
"21.2 µM (inactive)"
